- test method notes: chemical genetic growth profiling, strain panel (AID 1159580);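 note: tested at 20 µM; growth read once vehicle control cultures reached saturation at 30 °C; 1 = growth at the plate median or of vehicle wells; lower values mean less growth of the strain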
- condition context: S. cerevisiae deletion strains, growth OD, locus YGR092W, strain DBF2, stronger effect = lower value
Hit rate of the full screen: of about 5,500 compounds, about 2,000 (36%) were called active. Roughly 18% stayed inconclusive and do not appear here. Some of the results follow.
Entries and their normalized growth

{"columns": ["compound", "normalized growth"],
 "data": [
  ["COc1cc(NC(=S)NC(=O)c2ccccc2)c(OC)cc1Cl", "0.989 (inactive)"],
  ["Cc1ccc(/C=C2\\CSc3ccc(F)cc3C2=O)cc1", "0.86 (inactive)"],
  ["CC(=O)CSc1nnc(-c2ccc(C(C)(C)C)cc2)n1-c1ccc(Cl)cc1", "0.987 (inactive)"],
  ["O=C(NNc1ccccc1F)c1ccno1", "0.904 (inactive)"],
  ["Cc1nnsc1C(=O)Nc1cc(C(F)(F)F)cc(C(F)(F)F)c1", "0.974 (inactive)"],
  ["CS(=NC(=O)c1cccc(Cl)c1)c1ccc(OC(=O)c2ccc(Cl)cc2)cc1 (configuration not stated)", "0.981 (inactive)"],
  ["Cc1nnsc1C(=O)NNc1c(Cl)cccc1Cl", "0.952 (inactive)"],
  ["COc1ccc(/C=C2\\CSc3ccc(F)cc3C2=O)cc1", "0.925 (inactive)"],
  ["COc1cc(NC(=S)N(C)C)c(OC)cc1Cl", "0.992 (inactive)"],
  ["Cc1cc(C(=O)Nc2ccc(Cl)cc2)nn1C(C)(C)C", "0.982 (inactive)"],
  ["O=C(N/C=C/c1ccsc1)Nc1cc(C(F)(F)F)cc(C(F)(F)F)c1", "0.254 (active)"],
  ["O=S(=O)(Nc1cccc2nsnc12)c1cc(Cl)sc1Cl", "0.87 (inactive)"]
]}
